- procedure_summary: E. coli Tat export inhibitors, dose response, cherry-pick, set 2, plate reader (AID 504941)
- assay_context: E. coli Tat transport reporter; series mostly up to 38 µM
In all, about 1,200 compounds went through this assay and about 170 (14%) were called active. The list is a sample of the results. Measured potencies and affinities stand elsewhere.
value_kind: outcome

O=C1c2cccc3cccc(c23)C(=O)N1CC1CCN(CC(O)COc2ccc3ccccc3c2)CC1 (configuration not stated) | inactive
Cc1nc2ccccn2c1/C(O)=C1\C(=O)C(=O)N(CCN(C)C)C1c1ccco1 (configuration not stated) | inactive
O=C(Nc1ccccc1F)C1CCN(C(=O)Cc2ccccc2)CC1 | inactive
Cc1ccc2nc(NNC(=O)c3ccc(S(=O)(=O)N4CCc5ccccc5C4)cc3)sc2c1 | inactive
COC(=O)C1(S(=O)(=O)C2(C(=O)OC)CCCC2)CCCC1 | inactive

Consider now this further compound.
## Input outcome for `O=C(COC(=O)/C=C/c1ccc(F)cc1)Nc1nnc(-c2ccccc2)o1` ?
## Output inactive
